- test-system: MPXV VP39 2′-O-RNA methyltransferase (Monkeypox virus)
- Sequence (A0A7H0DN74 whole entry, looked up): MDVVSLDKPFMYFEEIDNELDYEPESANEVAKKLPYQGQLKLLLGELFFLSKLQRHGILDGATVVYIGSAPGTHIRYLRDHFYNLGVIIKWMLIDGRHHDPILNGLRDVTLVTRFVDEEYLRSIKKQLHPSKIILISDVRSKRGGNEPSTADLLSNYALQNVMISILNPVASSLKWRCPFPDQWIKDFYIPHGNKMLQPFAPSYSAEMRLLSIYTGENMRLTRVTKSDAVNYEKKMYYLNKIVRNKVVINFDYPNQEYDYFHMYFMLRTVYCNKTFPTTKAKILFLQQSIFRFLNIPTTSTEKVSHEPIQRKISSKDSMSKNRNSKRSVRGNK
- assay-text: biochemical
- recorded-conditions: IC50 (mean ± SEM)
endpoint: IC50 (nM)
Numbers only, in nM.

The molecule Nc1ncnc2c1c(C#Cc1ccccc1)cn2[C@@H]1O[C@H](CSCC[C@H](N)C(=O)O)[C@@H](O)[C@H]1O [TO427] , tested on MPXV VP39 2′-O-RNA methyltransferase (Monkeypox virus), showed IC50 of 115

* * *

- test-system: MPXV VP39 2′-O-RNA methyltransferase (Monkeypox virus)
- assay-text: biochemical
- recorded-conditions: IC50 average (averaged IC50 values from independent measurement)
Response field label takes True when IC50 is strictly below 100 nM and False in all other cases.

Solved cases below.
>>> class("Nc1ncnc2c1c(C#Cc1cnc3ccccc3c1)cn2[C@@H]1O[C@H](CSCC[C@H](N)C(=O)O)[C@@H](O)[C@H]1O")
"False"
>>> class("Nc1ncnc2c1c(C#Cc1cccc3ccccc13)cn2[C@@H]1O[C@H](CSCC[C@H](N)C(=O)O)[C@@H](O)[C@H]1O")
"False"
>>> class("Nc1ncnc2c1ncn2[C@@H]1O[C@H](C[C@@H](N)CC[C@H](N)C(=O)O)[C@@H](O)[C@H]1O [sinefungin, reference compound]")
"False"
>>> class("CCc1cn([C@@H]2O[C@H](CSCC[C@H](N)C(=O)O)[C@@H](O)[C@H]2O)c2ncnc(N)c12")
"True"
>>> class("Nc1ncnc2c1c(C#Cc1ccc3ccccc3c1)cn2[C@@H]1O[C@H](CSCC[C@H](N)C(=O)O)[C@@H](O)[C@H]1O")
"True"
>>> class("Nc1ncnc2c1c(C#Cc1nc3ccccc3[nH]1)cn2[C@@H]1O[C@H](CSCC[C@H](N)C(=O)O)[C@@H](O)[C@H]1O")
"False"

Q: Bench note: check whether Nc1ncnc2c1c(C#Cc1ccccc1)cn2[C@@H]1O[C@H](CSCC[C@H](N)C(=O)O)[C@@H](O)[C@H]1O shows IC50 below 100 nM
A: False

Q: Does the reported IC50 of C=Cc1cn([C@@H]2O[C@H](CSCC[C@H](N)C(=O)O)[C@@H](O)[C@H]2O)c2ncnc(N)c12 stay below 100 nM?
A: False
